hERG current change (%, negative = inhibition) at 1uM values for the compounds below.
Tested system: human ether-à-go-go-related gene (hERG) potassium channel (human, UniProt Q12809)
Sequence (Q12809 whole entry, looked up): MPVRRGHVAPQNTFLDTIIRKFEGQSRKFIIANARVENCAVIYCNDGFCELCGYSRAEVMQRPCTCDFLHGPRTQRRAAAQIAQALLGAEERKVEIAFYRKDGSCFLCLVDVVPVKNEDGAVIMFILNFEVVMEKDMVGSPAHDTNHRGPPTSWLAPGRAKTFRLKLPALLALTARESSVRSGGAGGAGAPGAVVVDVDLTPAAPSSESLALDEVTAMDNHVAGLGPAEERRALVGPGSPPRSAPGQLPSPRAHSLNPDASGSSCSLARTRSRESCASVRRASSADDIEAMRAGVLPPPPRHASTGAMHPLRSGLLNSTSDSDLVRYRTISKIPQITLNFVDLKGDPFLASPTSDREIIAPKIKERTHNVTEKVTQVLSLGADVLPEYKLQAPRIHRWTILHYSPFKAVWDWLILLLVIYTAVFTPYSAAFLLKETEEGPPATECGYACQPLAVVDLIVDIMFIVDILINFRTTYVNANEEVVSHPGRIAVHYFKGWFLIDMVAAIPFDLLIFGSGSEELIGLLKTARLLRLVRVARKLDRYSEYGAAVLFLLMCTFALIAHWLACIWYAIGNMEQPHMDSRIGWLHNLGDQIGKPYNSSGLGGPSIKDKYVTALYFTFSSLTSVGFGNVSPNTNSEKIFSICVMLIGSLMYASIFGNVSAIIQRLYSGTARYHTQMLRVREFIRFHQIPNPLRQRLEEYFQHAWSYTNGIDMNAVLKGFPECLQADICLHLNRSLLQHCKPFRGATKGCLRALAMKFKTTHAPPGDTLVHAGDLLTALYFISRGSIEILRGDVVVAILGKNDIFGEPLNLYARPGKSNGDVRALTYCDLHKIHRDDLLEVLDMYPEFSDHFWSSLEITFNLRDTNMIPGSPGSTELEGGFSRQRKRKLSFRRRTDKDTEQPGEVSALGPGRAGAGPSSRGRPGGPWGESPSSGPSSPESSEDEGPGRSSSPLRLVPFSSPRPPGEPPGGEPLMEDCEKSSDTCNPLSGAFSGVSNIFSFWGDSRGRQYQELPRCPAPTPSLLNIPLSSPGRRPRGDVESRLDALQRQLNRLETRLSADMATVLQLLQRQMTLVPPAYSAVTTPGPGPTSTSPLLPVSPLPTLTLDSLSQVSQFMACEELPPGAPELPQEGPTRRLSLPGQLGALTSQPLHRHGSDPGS
Assay overview: primary screen, population patch clamp on CHO cells stably expressing hERG; higher = less effect of the substance
The campaign covered roughly 310,000 compounds. About 2,200 (0.71%) showed an effect of 50% or more. Effects have a minus sign here. The sample holds strong results, similar compounds and a random draw of the others, so the mix is not that of the screen.
Endpoint name: hERG current change (%, negative = inhibition) at 1uM

INSERT INTO measurements (compound, result) VALUES
  ('O=C(c1ccco1)N1CCN(c2ccnc3cc(Cl)ccc23)CC1', '-63.6%'),
  ('Cc1cc(N2CCN(C(=O)c3ccco3)CC2)c2ccccc2n1', '-68.6%'),
  ('CCOc1ccc(N(CC(=O)NC2CCCCC2)C(=O)CNC(=O)c2ccco2)cc1', '-5.99%'),
  ('CCOC(=O)c1c(NC(=O)C2C3C=CC(C3)C2C(=O)O)sc2c1CCC(CC)C2 (centres unmarked)', '14%'),
  ('CCOC(=O)C1=C(c2ccccc2)Nc2ncnn2C1c1cccc(OC)c1OC (centres unmarked)', '21.4%');

---

Tested system: human ether-à-go-go-related gene (hERG) potassium channel (human)
Assay overview: primary screen, population patch clamp on CHO cells stably expressing hERG; higher = less effect of the substance
Hit rate of the full screen: of about 310,000 compounds, about 2,200 (0.71%) showed an effect of 50% or more. Effects have a minus sign here. This is one part of a sample in which strong results are shown more often than they occur.
Endpoint name: hERG current change (%, negative = inhibition) at 1uM (%)

INSERT INTO assay_data (compound, quantitative_readout) VALUES
  ('CN(C)S(=O)(=O)c1ccc(C(=O)OCCCN=C2NS(=O)(=O)c3ccccc32)cc1', -5.83),
  ('COc1ccc(S(=O)(=O)N(C)CC(=O)Nc2ccccc2SC)cc1Cl', 11.6),
  ('Cc1ccc(Nc2c3c(nc4ccccc24)CCC3)cc1.Cl', -57.7),
  ('CCN1CCCC(OC(=O)Nc2ccccc2)C1 (stereo not shown)', 6.59),
  ('COc1ccc(Nc2c3c(nc4ccccc24)CCC3)cc1.Cl', -14.5),
  ('c1ccc2c(Nc3ccc4c(c3)OCCO4)c3c(nc2c1)CCCC3', -83.5),
  ('Nc1cccc2c1C(=O)N(C(=O)c1ccc(Cl)c(S(=O)(=O)N3CCCCCC3)c1)C2=O', 13.1),
  ('N#Cc1cccc(Nc2c3c(nc4ccccc24)CCC3)c1', -18),
  ('Cl.c1ccc2c(Nc3ccc4c(c3)OCCO4)c3c(nc2c1)CCC3', -13.9),
  ('COc1ccc(Nc2c3c(nc4ccccc24)CCCC3)cc1OC', -78);

---

Tested system: human ether-à-go-go-related gene (hERG) potassium channel (human, UniProt Q12809)
Assay overview: primary screen, population patch clamp on CHO cells stably expressing hERG; higher = less effect of the substance
In all, about 310,000 compounds went through this assay and about 2,200 (0.71%) showed an effect of 50% or more. The effect is printed as a negative number. The sample holds strong results, similar compounds and a random draw of the others, so the mix is not that of the screen.
Endpoint name: hERG current change (%, negative = inhibition) at 1uM (%)

INSERT INTO results (compound, tested_system, output_unit, quantitative_readout) VALUES
  ('Cc1ccc(C(=O)NC(=S)N(C)C2CCCCC2)cc1', 'human ether-à-go-go-related gene (hERG) potassium channel (human, UniProt Q12809)', '%', 6.79),
  ('COc1ccc(-c2cc(C(=O)N3CCN(c4ccccc4F)CC3)c3ccccc3n2)c(OC)c1', 'human ether-à-go-go-related gene (hERG) potassium channel (human, UniProt Q12809)', '%', 4.75),
  ('COc1ccc(C(=O)NC2CC3CCCC(C2)N3CC(C)C)cc1OC (stereo not drawn)', 'human ether-à-go-go-related gene (hERG) potassium channel (human, UniProt Q12809)', '%', 8.35),
  ('CCOc1cc([N+](=O)[O-])cc(/C=C2/NC(=O)N(Cc3ccccc3F)C2=O)c1O', 'human ether-à-go-go-related gene (hERG) potassium channel (human, UniProt Q12809)', '%', 4.45),
  ('CC(=O)OC1C(N2CCCCC2)c2c(ccc(/C=C/C(=O)N3CCCCC3)c2O)OC1(C)C (stereo not drawn)', 'human ether-à-go-go-related gene (hERG) potassium channel (human, UniProt Q12809)', '%', 8.42),
  ('CC(C)C(C)NC(=O)CSc1nnc(-c2c[nH]c3ccccc23)o1 (stereo not drawn)', 'human ether-à-go-go-related gene (hERG) potassium channel (human, UniProt Q12809)', '%', 4.32),
  ('Cc1ccccc1NC(=O)NCCc1ccc(Cl)cc1', 'human ether-à-go-go-related gene (hERG) potassium channel (human, UniProt Q12809)', '%', 8.42),
  ('c1cncc(-c2nc3ccccn3c2Nc2ccc3c(c2)OCCO3)c1', 'human ether-à-go-go-related gene (hERG) potassium channel (human, UniProt Q12809)', '%', 4.02),
  ('CC(C)=CCOc1ccc2c(C)c(CC(=O)N3C[C@H]4C[C@@H](C3)c3cccc(=O)n3C4)c(=O)oc2c1C', 'human ether-à-go-go-related gene (hERG) potassium channel (human, UniProt Q12809)', '%', -18.5);

Origin of measurements: paper PMC4336329
